These measurements were taken from patent US8048862B2.

Would you mind telling me the reported IC50 of each entry?
target: NS3/NS4 complexes (Hepatitis C virus genotype 1a, UniProt P27958); assay: NS3/NS4 inhibition activity (IC50); format: biochemical; settings: Table 3, read-out: IC50
Sequence (P27958 1027-1657): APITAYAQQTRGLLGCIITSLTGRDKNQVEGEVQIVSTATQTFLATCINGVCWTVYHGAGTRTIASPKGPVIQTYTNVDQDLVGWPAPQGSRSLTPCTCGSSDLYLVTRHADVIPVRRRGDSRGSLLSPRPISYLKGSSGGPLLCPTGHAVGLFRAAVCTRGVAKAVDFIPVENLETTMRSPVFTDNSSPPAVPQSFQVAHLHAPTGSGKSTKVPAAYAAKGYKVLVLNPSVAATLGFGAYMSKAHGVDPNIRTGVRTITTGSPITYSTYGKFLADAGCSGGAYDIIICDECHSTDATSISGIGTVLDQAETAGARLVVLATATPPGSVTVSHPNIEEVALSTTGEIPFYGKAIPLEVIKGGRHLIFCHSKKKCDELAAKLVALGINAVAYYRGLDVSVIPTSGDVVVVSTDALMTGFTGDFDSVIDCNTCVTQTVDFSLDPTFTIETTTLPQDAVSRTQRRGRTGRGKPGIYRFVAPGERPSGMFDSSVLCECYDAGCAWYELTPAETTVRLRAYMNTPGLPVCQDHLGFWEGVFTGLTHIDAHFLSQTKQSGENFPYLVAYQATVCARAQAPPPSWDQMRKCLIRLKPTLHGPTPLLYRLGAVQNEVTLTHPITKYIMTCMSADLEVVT
Sequence (P27958 1658-1711): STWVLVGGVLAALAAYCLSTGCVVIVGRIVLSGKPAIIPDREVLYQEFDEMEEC

Worked set:
CC(C)(C)OC(=O)N[C@H]1CCCCC/C=C\[C@@H]2C[C@@]2(C(=O)O)NC(=O)[C@@H]2C[C@@H](Oc3nc4ccccc4s3)CN2C1=O	10 to 100 nM
Cc1ccc2nc(O[C@@H]3C[C@H]4C(=O)N[C@]5(C(=O)NS(=O)(=O)C6CC6)C[C@H]5/C=C\CCCCC[C@H](NC(=O)OC(C)(C)C)C(=O)N4C3)sc2c1	< 10 nM
CNC(=O)COc1ccccc1S(=O)(=O)NC(=O)[C@@]12C[C@H]1/C=C\CCCCC[C@H](NC(=O)OC(C)(C)C)C(=O)N1C[C@H](OC(=O)N3Cc4cccc(F)c4C3)C[C@H]1C(=O)N2	< 10 nM
CNC(=O)COc1ccccc1S(=O)(=O)NC(=O)[C@@]12C[C@H]1/C=C\CCCCC[C@H](NC(=O)OC(C)(C)C)C(=O)N1C[C@H](OC(=O)N(C)C)C[C@H]1C(=O)N2	< 10 nM
O=C(N[C@H]1CCCCC/C=C\[C@@H]2C[C@@]2(C(=O)NS(=O)(=O)C2CC2)NC(=O)[C@@H]2C[C@@H](OC(=O)N3Cc4cccc(F)c4C3)CN2C1=O)O[C@@H]1C[C@@H]2C[C@@H]2C1	< 10 nM
CC(C)(C)OC(=O)N[C@H]1CCCCC/C=C\[C@@H]2C[C@@]2(C(=O)NS(=O)(=O)C2CC2)NC(=O)[C@@H]2C[C@@H](Oc3nc4ccc(F)cc4o3)CN2C1=O	< 10 nM
CC(C)(C)OC(=O)N[C@H]1CCCCC/C=C\[C@@H]2C[C@@]2(C(=O)NS(=O)(=O)C2CC2)NC(=O)[C@@H]2C[C@@H](Oc3nc4cccc(F)c4o3)CN2C1=O	< 10 nM
CC(C)(C)OC(=O)N[C@H]1CCCCC/C=C\[C@@H]2C[C@@]2(C(=O)NOc2ccccc2)NC(=O)[C@@H]2C[C@@H](Oc3nc4ccc(F)cc4s3)CN2C1=O	10 to 100 nM
Cc1cccc2c1nc(O[C@@H]1C[C@H]3C(=O)N[C@]4(C(=O)NS(=O)(=O)N(C)C)C[C@H]4/C=C\CCCCC[C@H](NC(=O)OC(C)(C)C)C(=O)N3C1)n2C(C)C	< 10 nM

// next entry
### Prompt Answer with the recorded IC50 of CN(C)S(=O)(=O)NC(=O)[C@@]12C[C@H]1/C=C\CCCCC[C@H](NC(=O)OC(C)(C)C)C(=O)N1C[C@H](Oc3nc4ccccc4n3C3CCCC3)C[C@H]1C(=O)N2 only.
### Response < 10 nM

----------
biological target: NS3/NS4 complexes (Hepatitis C virus genotype 1a, UniProt P27958); assay: NS3/NS4 inhibition activity (IC50); assay type: biochemical; conditions: Table 2, read-out: IC50
pIC50: −log10 of the molar value.
RESULT TYPE: pIC50

O=C1N[C@]2(C(=O)O)C[C@H]2/C=C\CCCCC[C@H](Nc2cc(Cl)cc(Cl)c2)C(=O)N2C[C@H](Oc3nc4ccccc4s3)C[C@@H]12 [Compound 344]	6.30 to 7.12

# batch size: 4; output pIC50 per entry
1. CC1(S(=O)(=O)NC(=O)[C@@]23C[C@H]2/C=C\CCCCC[C@H](Nc2cc(F)cc(C(F)(F)F)c2)C(=O)N2C[C@H](Oc4nc5ccccc5s4)C[C@H]2C(=O)N3)CC1 [Compound 345]
2. COc1ccc2c(O[C@@H]3C[C@H]4C(=O)N[C@]5(C(=O)NS(=O)(=O)C6(C)CC6)C[C@H]5/C=C\CCCCC[C@H](Nc5cccc(C(F)(F)F)c5)C(=O)N4C3)cc(-c3nc(C(C)C)cs3)nc2c1C [Compound 360]
3. Cc1ccc2nc(O[C@@H]3C[C@H]4C(=O)N[C@]5(C(=O)NS(=O)(=O)C6(C)CC6)C[C@H]5/C=C\CCCCC[C@H](Nc5cc(F)cc(C(F)(F)F)c5)C(=O)N4C3)sc2c1 [Compound 350]
4. CC(C)n1c(O[C@@H]2C[C@H]3C(=O)N[C@]4(C(=O)NS(=O)(=O)N(C)C)C[C@H]4/C=C\CCCCC[C@H](Nc4cc(F)cc(C(F)(F)F)c4)C(=O)N3C2)nc2ccccc21 [Compound 391]

### Response
> 8.00
> 8.00
> 8.00
> 8.00

----------
system: hepatitis C replicon; assay: hepatitis C replicon EC50; type: cell-based; settings: Hepatitis C virus; Table 2; hepatitis C replicon; read-out: EC50
pEC50: −log10 of the molar value.
Would you mind telling me the reported pEC50 of each entry?

Worked set:
COc1cccc(N[C@H]2CCCCC/C=C\[C@@H]3C[C@@]3(C(=O)NS(=O)(=O)C3(C)CC3)NC(=O)[C@@H]3C[C@@H](Oc4nc5ccccc5s4)CN3C2=O)c1 [Compound 244]	7.12 to 8.00
CC(C)n1c(O[C@@H]2C[C@H]3C(=O)N[C@]4(C(=O)NS(=O)(=O)C5(C)CC5)C[C@H]4/C=C\CCCCC[C@H](Nc4cc(F)cc(C(F)(F)F)c4)C(=O)N3C2)nc2ccccc21 [Compound 376]	> 8.00
COc1ccc2c(O[C@@H]3C[C@H]4C(=O)N[C@]5(C(=O)NS(=O)(=O)C6(C)CC6)C[C@H]5/C=C\CCCCC[C@H](Nc5ccc(F)c(C(F)(F)F)c5)C(=O)N4C3)cc(-c3nc(C(C)C)cs3)nc2c1C [Compound 374]	> 8.00
CC1(S(=O)(=O)NC(=O)[C@@]23C[C@H]2/C=C\CCCCC[C@H](Nc2nc4ccccc4o2)C(=O)N2C[C@H](Oc4nccc5ccccc45)C[C@H]2C(=O)N3)CC1 [Compound 380]	7.12 to 8.00

# batch size: 6; output pEC50 per entry
1. O=C1N[C@]2(C(=O)NOc3ccccc3)C[C@H]2/C=C\CCCCC[C@H](NCc2ccccc2)C(=O)N2C[C@H](Oc3nc4ccccc4s3)C[C@@H]12 [Compound 309]
2. CC1(S(=O)(=O)NC(=O)[C@@]23C[C@H]2/C=C\CCCCC[C@H](Nc2cccc(C(F)(F)F)c2)C(=O)N2C[C@H](Oc4nc5ccc(Cl)cc5s4)C[C@H]2C(=O)N3)CC1 [Compound 226]
3. CC(C)n1c(O[C@@H]2C[C@H]3C(=O)N[C@]4(C(=O)NS(=O)(=O)C5(C)CC5)C[C@H]4/C=C\CCCCC[C@H](Nc4ccccc4)C(=O)N3C2)nc2ccccc21 [Compound 365]
4. COc1ccc2c(O[C@@H]3C[C@H]4C(=O)N[C@]5(C(=O)NS(=O)(=O)N(C)C)C[C@H]5/C=C\CCCCC[C@H](Nc5cccc(C(F)(F)F)c5)C(=O)N4C3)cc(-c3nc(C(C)C)cs3)nc2c1C [Compound 457]
5. COc1ccc2c(O[C@@H]3C[C@H]4C(=O)N[C@]5(C(=O)NS(=O)(=O)C6(C)CC6)C[C@H]5/C=C\CCCCC[C@H](Nc5ccc(F)cc5)C(=O)N4C3)cc(-c3nc(C(C)C)cs3)nc2c1C [Compound 362]
6. COc1ccc2c(O[C@@H]3C[C@H]4C(=O)N[C@]5(C(=O)NS(=O)(=O)N(C)C)C[C@H]5/C=C\CCCCC[C@H](Nc5ccc(F)c(C(F)(F)F)c5)C(=O)N4C3)cc(-c3nc(C(C)C)cs3)nc2c1C [Compound 459]

### Response
["< 6.30", "6.30 to 7.12", "> 8.00", "> 8.00", "> 8.00", "> 8.00"]

----------
system: hepatitis C replicon; assay: hepatitis C replicon EC50; assay type: cell-based; conditions: Hepatitis C virus; Table 2; hepatitis C replicon; read-out: EC50
Would you mind telling me the reported EC50 of each entry?

Worked set:
CC1(S(=O)(=O)NC(=O)[C@@]23C[C@H]2/C=C\CCCCC[C@H](Nc2cc(F)cc(C(F)(F)F)c2)C(=O)N2C[C@H](Oc4nc5ccc(Cl)cc5s4)C[C@H]2C(=O)N3)CC1 [Compound 351]	75 to 500 nM
COc1ccc2c(O[C@@H]3C[C@H]4C(=O)N[C@]5(C(=O)NS(=O)(=O)C6(C)CC6)C[C@H]5/C=C\CCCCC[C@H](Nc5cc(F)cc(F)c5)C(=O)N4C3)cc(-c3nc(C(C)C)cs3)nc2c1C [Compound 363]	10 to 75 nM
CC1(S(=O)(=O)NC(=O)[C@@]23C[C@H]2/C=C\CCCCC[C@H](Nc2cc(F)cc(C(F)(F)F)c2)C(=O)N2C[C@H](Oc4nccc5ccccc45)C[C@H]2C(=O)N3)CC1 [Compound 346]	< 10 nM
O=C1N[C@]2(C(=O)O)C[C@H]2/C=C\CCCCC[C@H](Nc2cccc(Cl)c2)C(=O)N2C[C@H](Oc3nc4ccccc4s3)C[C@@H]12 [Compound 335]	> 500 nM

### Prompt Look up and report measured EC50 (hepatitis C replicon) for the following compound: CC1(S(=O)(=O)NC(=O)[C@@]23C[C@H]2/C=C\CCCCC[C@H](Nc2ccc(F)c(F)c2)C(=O)N2C[C@H](Oc4nc5ccccc5s4)C[C@H]2C(=O)N3)CC1 [Compound 341]
### Response 10 to 75 nM
